Species: Rattus norvegicus
Test: Compound was tested for inhibition against [3H]raclopride to Rat brain membranes
Type: functional, Membrane
Square brackets hold non-standard residues; d marks the D form. Peptide text beside a SMILES is read from it. Phe(4-Cl) = N[C@@H](Cc1ccc(Cl)cc1)C(=O)O
readout_kind: IC50 (µM)

{"molecule": "C[C@@H]1NC(=O)[C@@H](CCC(N)=O)NC(=O)CNC(=O)[C@H](CCCN=C(N)N)NC1=O", "u": "µM", "IC50": 12.5}

(P) NC(=O)CC[C@H]1NC(=O)CNC(=O)[C@H](CCCN=C(N)N)NC(=O)[C@H](Cc2ccc(O)cc2)NC1=O
(Q) N=C(N)NCCC[C@H]1NC(=O)[C@H](Cc2ccc(O)cc2)NC(=O)[C@H](Cc2ccc(Cl)cc2)NC(=O)CNC1=O (cyclo(G[Phe(4-Cl)]Y[dR]))
Of the two listed items, which has the higher IC50? First: P Second: Q Reply with the label of the item you choose.
P

(a) N=C(N)NCCC[C@H]1NC(=O)[C@H](Cc2ccc(O)cc2)NC(=O)[C@H](Cc2ccc(N)cc2)NC(=O)CNC1=O
(b) C[C@@H]1NC(=O)CNC(=O)[C@@H](CCCN=C(N)N)NC(=O)[C@H](Cc2ccc(O)cc2)NC1=O
Looking at recorded values for IC50, does a or b come in lower? Reply with the label of the item you choose.
b
